assay: Odor threshold and odor value of perfuming compounds (Tables 4 to 10); conditions: Table 9, gourmand note
Please map values of Odor Threshold to classes as shown: Low: < 0.0002 μg/l air; Medium: ≥ 0.0002 μg/l air and < 0.0009 μg/l air; High: ≥ 0.0009 μg/l air

> print(dat)
                                   molecule  label.value
1     C=C1CCCC(C)(C)C1C(=O)/C=C/C (racemic)         High
2  CC1=CC[C@H](C(C)CC2CCCC2=O)CC1 (stereo partly shown)          Low
3  CCCCCCCC1CCCC(=O)O1 (racemic) [(+−)-6-heptyltetrahydro-2H-pyran-2-one]          Low
4  CC(=O)OCCc1ccccc1 [2-PHENYLETHYL ACETATE]         High
5            C=CCSSCC=C [DIALLYL DISULFIDE]          Low
6   COC(=O)Cc1ccccc1 [METHYL PHENYLACETATE]       Medium
7  CCCC(=O)OC(C)(C)Cc1ccccc1 [1,1-DIMETHYL-2-PHENYLETHYL BUTANOATE]         High
8  CCCCCC1CCCC(=O)O1 (racemic) [(+−)-6-pentyltetrahydro-2H-pyran-2-one]          Low
9  O=C1CCC2(CCCCC2)O1 [1-oxaspiro[4.5]decan-2-one]       Medium
